Data credit: patent US20150246938A1

Recorded pIC50 by entry
Target: recombinant human ACC2 (Homo sapiens, UniProt O00763)
Construct: a cDNA encoding human ACC2 (27-2458) was cloned from human kidney cDNA library (Clontech); His-tag (N); made in house; host or cells: Sf-9 insect cells (Bac-to-Bac baculovirus)
Sequence (O00763 27-2458): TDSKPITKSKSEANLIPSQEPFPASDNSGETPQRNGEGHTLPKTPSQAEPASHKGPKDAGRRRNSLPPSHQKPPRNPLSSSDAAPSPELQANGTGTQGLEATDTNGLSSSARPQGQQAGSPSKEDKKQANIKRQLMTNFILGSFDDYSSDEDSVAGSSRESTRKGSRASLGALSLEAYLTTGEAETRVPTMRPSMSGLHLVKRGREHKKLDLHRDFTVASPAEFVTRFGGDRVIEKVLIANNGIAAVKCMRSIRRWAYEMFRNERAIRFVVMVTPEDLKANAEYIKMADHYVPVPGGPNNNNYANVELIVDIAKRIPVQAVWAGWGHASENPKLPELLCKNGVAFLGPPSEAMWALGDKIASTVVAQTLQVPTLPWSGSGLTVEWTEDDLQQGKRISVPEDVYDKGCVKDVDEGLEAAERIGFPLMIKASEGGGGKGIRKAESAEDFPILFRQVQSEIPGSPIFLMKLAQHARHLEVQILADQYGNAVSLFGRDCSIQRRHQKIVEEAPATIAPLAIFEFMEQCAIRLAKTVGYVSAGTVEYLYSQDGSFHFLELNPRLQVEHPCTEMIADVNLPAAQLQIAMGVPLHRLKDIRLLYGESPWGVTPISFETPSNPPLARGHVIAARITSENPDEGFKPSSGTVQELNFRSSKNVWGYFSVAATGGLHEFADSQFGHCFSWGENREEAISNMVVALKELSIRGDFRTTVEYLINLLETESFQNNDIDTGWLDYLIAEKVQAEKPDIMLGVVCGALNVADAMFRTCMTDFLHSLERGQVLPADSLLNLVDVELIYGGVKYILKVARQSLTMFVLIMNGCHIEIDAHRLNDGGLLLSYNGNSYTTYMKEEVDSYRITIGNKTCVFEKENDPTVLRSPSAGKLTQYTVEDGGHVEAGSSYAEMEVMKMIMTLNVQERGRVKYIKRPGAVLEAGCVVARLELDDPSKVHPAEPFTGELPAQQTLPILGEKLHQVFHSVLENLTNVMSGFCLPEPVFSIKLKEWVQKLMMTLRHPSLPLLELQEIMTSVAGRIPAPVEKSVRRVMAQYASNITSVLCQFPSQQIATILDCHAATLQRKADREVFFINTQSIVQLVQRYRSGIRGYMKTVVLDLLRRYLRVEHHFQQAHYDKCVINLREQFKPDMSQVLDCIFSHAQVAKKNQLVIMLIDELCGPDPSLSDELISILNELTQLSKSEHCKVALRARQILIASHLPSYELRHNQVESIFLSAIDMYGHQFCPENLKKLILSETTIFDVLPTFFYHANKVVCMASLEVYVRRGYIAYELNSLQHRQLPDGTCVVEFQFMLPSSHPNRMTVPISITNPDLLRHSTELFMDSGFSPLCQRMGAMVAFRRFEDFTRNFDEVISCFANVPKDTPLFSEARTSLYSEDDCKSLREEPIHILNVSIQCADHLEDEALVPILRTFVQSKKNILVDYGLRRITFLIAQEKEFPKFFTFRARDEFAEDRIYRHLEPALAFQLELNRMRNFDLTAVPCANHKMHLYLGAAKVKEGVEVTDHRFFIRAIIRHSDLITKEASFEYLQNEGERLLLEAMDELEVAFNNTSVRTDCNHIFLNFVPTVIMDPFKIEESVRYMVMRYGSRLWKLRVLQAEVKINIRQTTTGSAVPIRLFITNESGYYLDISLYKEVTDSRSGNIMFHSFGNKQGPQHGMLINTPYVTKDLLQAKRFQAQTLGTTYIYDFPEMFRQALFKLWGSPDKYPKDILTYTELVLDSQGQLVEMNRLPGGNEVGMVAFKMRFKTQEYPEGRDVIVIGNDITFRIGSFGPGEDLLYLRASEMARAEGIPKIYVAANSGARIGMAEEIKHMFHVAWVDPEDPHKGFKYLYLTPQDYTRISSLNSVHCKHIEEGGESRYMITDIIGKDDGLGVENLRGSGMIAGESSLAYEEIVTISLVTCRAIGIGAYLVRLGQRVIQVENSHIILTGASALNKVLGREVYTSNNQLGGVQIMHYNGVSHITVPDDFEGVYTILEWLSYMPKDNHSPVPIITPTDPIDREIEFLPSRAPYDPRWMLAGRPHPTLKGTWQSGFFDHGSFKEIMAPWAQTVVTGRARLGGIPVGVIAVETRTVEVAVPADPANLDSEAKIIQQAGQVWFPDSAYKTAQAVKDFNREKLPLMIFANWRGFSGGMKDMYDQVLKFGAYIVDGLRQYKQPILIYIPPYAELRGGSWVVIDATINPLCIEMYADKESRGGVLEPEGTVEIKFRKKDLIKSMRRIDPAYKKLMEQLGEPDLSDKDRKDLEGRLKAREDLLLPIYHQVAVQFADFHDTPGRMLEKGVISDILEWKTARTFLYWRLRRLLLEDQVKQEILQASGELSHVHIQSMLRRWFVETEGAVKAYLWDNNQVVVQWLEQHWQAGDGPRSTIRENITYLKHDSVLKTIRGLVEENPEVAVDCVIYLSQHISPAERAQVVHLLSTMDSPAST
Assay: Measurement of inhibitory activity on human ACC2 (MALDI-TOF MS, acetyl CoA to malonyl CoA conversion)
Assay type: biochemical
pIC50: −log10 of the molar value.

molecule: CC(=O)N[C@@H](C)/C=C/c1ccc(Oc2ccc(C(C)(C)C)cc2Cl)nc1
system name: recombinant human ACC2 (Homo sapiens, UniProt O00763)
pIC50: 7.74

molecule: CCNC(=O)N[C@@H](C)/C=C/c1cnc(Oc2ccc(OCC3CC3)cc2Cl)s1
system name: recombinant human ACC2 (Homo sapiens, UniProt O00763)
pIC50: 7.21

molecule: COc1c(OCC2CC2)ccc(Oc2cnc(/C=C/[C@H](C)NC(C)=O)cn2)c1Cl
system name: recombinant human ACC2 (Homo sapiens, UniProt O00763)
pIC50: 7.92

molecule: CC(=O)N[C@@H](C)/C=C/c1ccc(Oc2ccc3sc(C)nc3c2)nc1
system name: recombinant human ACC2 (Homo sapiens, UniProt O00763)
pIC50: 6.85

molecule: CC(=O)N[C@@H](C)/C=C/c1ccc(Oc2ccc(C(C)(C)C(F)(F)F)cc2Cl)nc1
system name: recombinant human ACC2 (Homo sapiens, UniProt O00763)
pIC50: 7.60

molecule: CC(=O)N[C@@H](C)/C=C/c1ccc(Oc2ccc(C3CCC3)cc2Cl)nc1
system name: recombinant human ACC2 (Homo sapiens, UniProt O00763)
pIC50: 7.25

molecule: CC(=O)N[C@@H](C)/C=C/c1ccc(Oc2ccc(-c3ncc(C(F)(F)F)cn3)cc2Cl)nc1
system name: recombinant human ACC2 (Homo sapiens, UniProt O00763)
pIC50: 7.32

molecule: CCCc1cc(Cl)c(Oc2ccc(/C=C/[C@H](C)NC(N)=O)cn2)c(Cl)c1
system name: recombinant human ACC2 (Homo sapiens, UniProt O00763)
pIC50: 6.25

molecule: CCOc1ccc(Oc2ncc(/C=C/[C@H](C)NC(C)=O)cc2N)c(Cl)c1
system name: recombinant human ACC2 (Homo sapiens, UniProt O00763)
pIC50: 5.57

molecule: CC(=O)N[C@@H](C)/C=C/c1ccc(Oc2ccc(C(F)(F)C(C)C)cc2Cl)nc1
system name: recombinant human ACC2 (Homo sapiens, UniProt O00763)
pIC50: 7.26

molecule: CC(=O)N[C@@H](C)/C=C/c1cc(Oc2ccc(OCC3CC3)cc2Cl)nn1C
system name: recombinant human ACC2 (Homo sapiens, UniProt O00763)
pIC50: 5.38

molecule: CC(=O)N[C@@H](C)/C=C/c1ccc(Oc2cc3c(cc2Cl)CCC3)nc1
system name: recombinant human ACC2 (Homo sapiens, UniProt O00763)
pIC50: 7.59

molecule: CCOc1ccc(Oc2ccc(/C=C/[C@H](C)CC(=O)NC)cn2)c(Cl)c1
system name: recombinant human ACC2 (Homo sapiens, UniProt O00763)
pIC50: 6.82

molecule: CC(=O)N[C@@H](C)/C=C/c1ccc(Oc2ccc(CC3CC3)cc2Cl)nc1
system name: recombinant human ACC2 (Homo sapiens, UniProt O00763)
pIC50: 7.66

molecule: CC(=O)N[C@@H](C)/C=C/c1ccc(Oc2ccc3c(c2)CCO3)nc1
system name: recombinant human ACC2 (Homo sapiens, UniProt O00763)
pIC50: 7.30

molecule: CC(=O)N[C@@H](C)/C=C/c1ccc(Oc2ccc(-c3nc4ccccc4o3)cc2Cl)nc1
system name: recombinant human ACC2 (Homo sapiens, UniProt O00763)
pIC50: 7.44

molecule: CC(=O)N[C@@H](C)/C=C/n1cc(Oc2ccc(OCC3CC3)cc2Cl)cn1
system name: recombinant human ACC2 (Homo sapiens, UniProt O00763)
pIC50: 5.96

molecule: CC(=O)N[C@@H](C)/C=C/c1cnc(Oc2cc(O)c(OCC3CC3)cc2Cl)nc1
system name: recombinant human ACC2 (Homo sapiens, UniProt O00763)
pIC50: 6.52

molecule: CCCc1ccc(Oc2ccc(/C=C/[C@H](C)NC(=O)Cc3ccccn3)cn2)c(Cl)c1
system name: recombinant human ACC2 (Homo sapiens, UniProt O00763)
pIC50: 5.89

molecule: CCCc1ccc(Oc2ccc(/C=C/[C@H](C)NC(=O)Cc3nccs3)cn2)c(Cl)c1
system name: recombinant human ACC2 (Homo sapiens, UniProt O00763)
pIC50: 5.52

molecule: CC(=O)N[C@@H](C)/C=C/c1ccc(Oc2ccc3c(c2)CCC3)nc1
system name: recombinant human ACC2 (Homo sapiens, UniProt O00763)
pIC50: 7.82

molecule: CCCc1ccc(Oc2ccc(/C=C/[C@H](C)NC(=O)CNC(=O)OC(C)(C)C)cn2)c(Cl)c1
system name: recombinant human ACC2 (Homo sapiens, UniProt O00763)
pIC50: 6.40

molecule: CCCc1ccc(Oc2ncc(/C=C/[C@H](C)NC(C)=O)s2)c(Cl)c1
system name: recombinant human ACC2 (Homo sapiens, UniProt O00763)
pIC50: 7.11

molecule: CCCc1ccc(Oc2ccc(/C=C/[C@H](C)NC(=O)CO)cn2)c(Cl)c1
system name: recombinant human ACC2 (Homo sapiens, UniProt O00763)
pIC50: 6.55

molecule: CC(=O)N[C@@H](C)/C=C/c1ccc(Oc2ccc(-c3ccc(C(F)(F)F)cn3)cc2Cl)nc1
system name: recombinant human ACC2 (Homo sapiens, UniProt O00763)
pIC50: 7.28

molecule: CC(=O)N[C@@H](C)/C=C/c1ccc(Oc2ccc(-c3cnccn3)cc2Cl)nc1
system name: recombinant human ACC2 (Homo sapiens, UniProt O00763)
pIC50: 6.70

molecule: CCCn1cc(Oc2ccc(/C=C/[C@H](C)NC(C)=O)cn2)cn1
system name: recombinant human ACC2 (Homo sapiens, UniProt O00763)
pIC50: 5.70

molecule: CCC(F)(F)c1ccc(Oc2ccc(/C=C/[C@H](C)NC(C)=O)cn2)c(Cl)c1
system name: recombinant human ACC2 (Homo sapiens, UniProt O00763)
pIC50: 7.62

molecule: CCCc1ccc(Oc2ccc(/C=C/[C@H](C)NC(=O)CC(=O)OC(C)(C)C)cn2)c(Cl)c1
system name: recombinant human ACC2 (Homo sapiens, UniProt O00763)
pIC50: 5.92

molecule: CCCc1ccc(Oc2ccc(/C=C/[C@H](C)NC(=O)c3ccnc(C(=O)NCCO)c3)cn2)c(Cl)c1
system name: recombinant human ACC2 (Homo sapiens, UniProt O00763)
pIC50: 7.33

molecule: CCC(F)(F)c1ccc(Oc2ccc(/C=C/[C@H](C)NC(N)=O)cn2)c(Cl)c1
system name: recombinant human ACC2 (Homo sapiens, UniProt O00763)
pIC50: 7.32

molecule: CC(=O)N[C@@H](C)/C=C/c1cnc(Oc2ccc(OCC3CC3O)cc2Cl)nc1 (some centres unmarked)
system name: recombinant human ACC2 (Homo sapiens, UniProt O00763)
pIC50: 5.43
